Attribution: patent US11053234B2

# IC50 per entry
Target: haematopoietic prostaglandin D synthase (H-PGDS) (Homo sapiens)
Construct: Full length human H-PGDS cDNA (Invitrogen Ultimate ORF 10H13026) was amplified by PCR; 6-His (N); TEV protease cleavage site (N); made in house; host or cells: E. coli BL21 (DE3*), vector pET22b+
Sequence (O60760 whole entry): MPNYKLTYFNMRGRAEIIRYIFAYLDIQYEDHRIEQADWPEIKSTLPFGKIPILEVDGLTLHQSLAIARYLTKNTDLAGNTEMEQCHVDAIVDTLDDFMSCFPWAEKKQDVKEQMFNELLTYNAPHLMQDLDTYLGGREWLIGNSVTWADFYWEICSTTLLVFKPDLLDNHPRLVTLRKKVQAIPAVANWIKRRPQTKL
Test: H-PGDS RapidFire high throughput mass spectrometry assay (conversion of PGH2 to PGD2)
Type: biochemical
Conditions: 10 nM H-PGDS, PGH2 formed in situ by COX-2 from arachidonic acid; read-out: Potency Range (mean pIC50) (converted)
Structures can show the parent of a compound that is named as a salt.

Solved cases below.
                                   compound                     target_or_test_system  measured_metric     data_value
0  O=C(NC12CC(Nc3ncccn3)(C1)C2)[C@H]1C[C@H](Oc2cccc3scnc23)C1  haematopoietic prostaglandin D synthase (H-PGDS) (Homo sapiens)             IC50  10 to 79.4 nM
1  CC(C)(O)c1csc(NC(=O)[C@H]2C[C@H](Oc3cccc4cccnc34)C2)n1  haematopoietic prostaglandin D synthase (H-PGDS) (Homo sapiens)             IC50  10 to 79.4 nM
2  CC(=O)c1cnc(NC(=O)[C@H]2C[C@H](Oc3cccc4cccnc34)C2)o1  haematopoietic prostaglandin D synthase (H-PGDS) (Homo sapiens)             IC50  10 to 79.4 nM
3  CNC(=O)c1csc(NC(=O)[C@H]2C[C@H](Oc3cccc4cccnc34)C2)n1 [Example 196, trifluoroacetic acid salt]  haematopoietic prostaglandin D synthase (H-PGDS) (Homo sapiens)             IC50  10 to 79.4 nM

Below: the item to evaluate.
stdin: Recorded IC50 of O=C(NC1CN(c2ccccn2)C1)N1CC(Oc2cc(F)cc3scnc23)C1 , please.
stdout: 10 to 79.4 nM

----------
Molecular target: haematopoietic prostaglandin D synthase (H-PGDS) (Homo sapiens)
Construct: Full length human H-PGDS cDNA (Invitrogen Ultimate ORF 10H13026) was amplified by PCR; 6-His (N); TEV protease cleavage site (N); made in house; host or cells: E. coli BL21 (DE3*), vector pET22b+
Assay: H-PGDS RapidFire high throughput mass spectrometry assay (conversion of PGH2 to PGD2)
Format: biochemical
Settings: 10 nM H-PGDS, PGH2 formed in situ by COX-2 from arachidonic acid; read-out: Potency Range (mean pIC50) (converted)
Counter-ions that a name gives are not always drawn.
MEASURED METRIC: IC50

>>> print(df.to_string())
                                   compound      data_value
0    Cc1nc(NC(=O)N2CC(Oc3cccc4scnc34)C2)ns1   10 to 79.4 nM
1  O=C(NC1CN(c2ncc(CO)cn2)C1)[C@H]1C[C@H](Oc2cc(F)cc3scnc23)C1   10 to 79.4 nM
2  CC(C)(O)[C@H]1CC[C@H](NC(=O)[C@H]2C[C@H](Oc3cccc4cncnc34)C2)CC1  100 to 1000 nM
3  COc1ccc(F)cc1O[C@H]1C[C@H](C(=O)Nc2cccc(C#N)n2)C1   10 to 79.4 nM
4  COc1ccc(F)cc1O[C@H]1C[C@H](C(=O)NC2CN(c3ncc(C#N)s3)C2)C1   10 to 79.4 nM
5  N#Cc1csc(NC(=O)[C@H]2C[C@H](Oc3cccc4cccnc34)C2)n1 [Example 188, trifluoroacetic acid salt]         < 10 nM
6  Cn1nccc1NC(=O)[C@H]1C[C@H](Oc2cccc3scnc23)C1  100 to 1000 nM
7  CC(=O)c1csc(NC(=O)[C@H]2C[C@H](Oc3cccc4cccnc34)C2)n1   10 to 79.4 nM
8  CC(C)(O)[C@H]1CC[C@H](NC(=O)[C@H]2C[C@H](Oc3cccc(Br)c3)C2)CC1  100 to 1000 nM
9  N#Cc1ccnc(N2CC(NC(=O)N3CC(Oc4cccc5scnc45)C3)C2)c1   10 to 79.4 nM

Could you now consider this next compound?
stdin: Short answer please: IC50, haematopoietic prostaglandin D synthase (H-PGDS) (Homo sapiens), entry COc1cncc(NC(=O)N2CC(Oc3cccc4scnc34)C2)c1
stdout: 10 to 79.4 nM
